Source of measurements: PubChem BioAssay AID1918941

tested on: SW 1271 complex spheroids, viability; assay: Anticancer human tumor SW 1271 cell line growth inhibition [LSD1]; conditions: second compound 0.316 µM; first compound 0.03 µM; active compounds read low;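 also: spheroids exposed to agents for 7 days before luminescence read; 100% = DMSO vehicle control viability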
readout_kind: viability, T/C (%)

>  <compound>
Nc1ccn(C2OC(CO)C(O)C2(F)F)c(=O)n1 (stereo not given) + NC1CC1c1ccc(-c2cccc(O)c2)cc1

>  <readout_kind>
viability, T/C

>  <reported_value>
57.4

$$$$
>  <compound>
NS(=O)(=O)OCC1CC(n2ccc3c(NC4CCc5ccccc54)ncnc32)CC1O (stereo not given) + NC1CC1c1ccc(-c2cccc(O)c2)cc1

>  <readout_kind>
viability, T/C

>  <reported_value>
112

$$$$
>  <compound>
Nc1ccccc1NC(=O)c1ccc(CNC(=O)OCc2cccnc2)cc1 + NC1CCC(NC2CC2c2ccccc2)CC1

>  <readout_kind>
viability, T/C

>  <reported_value>
69.4

$$$$
>  <compound>
Nc1ncn(C2CC(O)C(CO)S2)c(=O)n1 (stereo not given) + NC1CC1c1ccc(-c2cccc(O)c2)cc1

>  <readout_kind>
viability, T/C

>  <reported_value>
67.9

$$$$
>  <compound>
COc1cc(C2c3cc4c(cc3C(OC3OC5COC(C)OC5C(O)C3O)C3COC(=O)C23)OCO4)cc(OC)c1O (stereo not given) + NC1CCC(NC2CC2c2ccccc2)CC1

>  <readout_kind>
viability, T/C

>  <reported_value>
94.4

$$$$

----------
system: SW 1271 complex spheroids, viability; assay: Anticancer human tumor SW 1271 cell line growth inhibition [LSD1]; conditions: second compound 0.316 µM; first compound 0.01 µM; active compounds read low;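 also: spheroids exposed to agents for 7 days before luminescence read; 100% = DMSO vehicle control viability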

>  <compound>
Nc1ncn(C2CC(O)C(CO)O2)c(=O)n1 (configuration not stated) + NC1CCC(NC2CC2c2ccccc2)CC1

>  <target_system>
SW 1271 complex spheroids, viability

>  <viability, T/C (%)>
82.6

$$$$
>  <compound>
COc1cc(Nc2ncc3c(n2)-c2ccc(Cl)cc2C(c2c(F)cccc2OC)=NC3)ccc1C(=O)O + NC1CC1c1ccc(-c2cccc(O)c2)cc1

>  <target_system>
SW 1271 complex spheroids, viability

>  <viability, T/C (%)>
69.7

$$$$
>  <compound>
O=C(C=Cn1cnc(-c2cc(C(F)(F)F)cc(C(F)(F)F)c2)n1)NNc1cnccn1 + NC1CCC(NC2CC2c2ccccc2)CC1

>  <target_system>
SW 1271 complex spheroids, viability

>  <viability, T/C (%)>
77.3

$$$$
>  <compound>
Cn1ncnc1C1c2n[nH]c(=O)c3cc(F)cc(c23)NC1c1ccc(F)cc1 (configuration not stated) + NC1CCC(NC2CC2c2ccccc2)CC1

>  <target_system>
SW 1271 complex spheroids, viability

>  <viability, T/C (%)>
91.8

$$$$
>  <compound>
CC[C@@]1(O)C(=O)OCc2c1cc1n(c2=O)Cc2cc3c(CN(C)C)c(O)ccc3nc2-1 + NC1CCC(NC2CC2c2ccccc2)CC1

>  <target_system>
SW 1271 complex spheroids, viability

>  <viability, T/C (%)>
72.5

$$$$
>  <compound>
CC(C)CC(NC(=O)C(Cc1ccccc1)NC(=O)c1cnccn1)B(O)O (configuration not stated) + NC1CCC(NC2CC2c2ccccc2)CC1

>  <target_system>
SW 1271 complex spheroids, viability

>  <viability, T/C (%)>
0.27

$$$$
>  <compound>
CC1COCCN1c1cc(-c2ccnn2C)c2ccnc(-c3ccn[nH]3)c2n1 (configuration not stated) + NC1CC1c1ccc(-c2cccc(O)c2)cc1

>  <target_system>
SW 1271 complex spheroids, viability

>  <viability, T/C (%)>
55.6

$$$$
